Please go through the items and note down their inhibition at 32 µg/mL.
Test system: ADP-induced aggregation of human blood platelets in platelet-rich-plasma
Experiment: In vitro inhibition of ADP-induced human platelet aggregation (aggregometer method, PRP)
Assay type: cell-based
Conditions: Homo sapiens, Platelet, read-out: percentage in brackets beside the IC50 entry 32 (inhibition of ADP-induced aggregation)
Kindly provide the numeric value in % only, without the unit symbol.

Enter reported inhibition at 32 µg/mL observed with ADP-induced aggregation of human blood platelets in platelet-rich-plasma for COC(=O)COc1cccc(-c2oc(-c3ccccc3)nc2-c2nc(-c3ccccc3)c(-c3ccccc3)o2)c1 [Compound 25] 6

What would you report for COC(=O)COc1cccc(-c2ccccc2-c2nc(-c3ccccc3)c(-c3ccccc3)o2)c1 [Compound 6] ? 34

What would you report for O=C(O)COc1cccc(C2OC(=O)NC2c2nc(-c3ccccc3)c(-c3ccccc3)o2)c1 (stereo not shown) [Compound 45] ? 8

What would you report for COC(=O)COc1cccc([C@H]2OC(c3ccccc3)=N[C@H]2c2nc(-c3ccccc3)c(-c3ccccc3)o2)c1 (relative stereo) [Compound 42] ? 15
